# System: 276233-004-R-J1-PDC complex spheroid viability
# Procedure Summary: Anticancer human tumor 276233-004-R-J1-PDC patient-derived colon adenocarcinoma cell line growth inhibition [GQUAD]
# Condition Details: second compound 0.1 µM; first compound 0.0316 µM; hits give low values
Labels assigned by viability, T/C range: one (below 70%), two (70% to below 80%), three (80% or more)

The examples below pair each entry with its known result.
Compound	Label Value
CC(=O)O[C@H]1C(=O)[C@@]2(C)[C@H]([C@H](OC(=O)c3ccccc3)[C@]3(O)C[C@H](OC(=O)[C@H](O)[C@@H](NC(=O)c4ccccc4)c4ccccc4)C(C)=C1C3(C)C)[C@]1(OC(C)=O)CO[C@@H]1C[C@@H]2O + Cc1[nH]c2ccc(F)cc2c1-c1nc2c3cccnc3c3ncccc3c2[nH]1	one
CC(C)(O)C1CCC(Nc2ccc3ncc(-c4cccc(C(F)(F)F)c4)n3n2)CC1 (stereo not given) + Cc1[nH]c2ccc(F)cc2c1-c1nc2c3cccnc3c3ncccc3c2[nH]1	two
CC(C)(O)C1CCC(Nc2ccc3ncc(-c4cccc(C(F)(F)F)c4)n3n2)CC1 (stereo not given) + Cc1cnc(CNC(=O)c2c(=O)c3ccc(N4CCCN(C)CC4)nc3n3c2sc2ccccc23)cn1	three
CC1COCCN1c1cc(C2(S(C)(=N)=O)CC2)nc(-c2ccnc3[nH]ccc23)n1 (stereo not given) + CN(C)c1ccc(Nc2c3ccc(NC(=O)CCN4CCCC4)cc3nc3cc(NC(=O)CCN4CCCC4)ccc23)cc1	three
CC[C@@]1(O)C(=O)OCc2c1cc1n(c2=O)Cc2cc3c(CN(C)C)c(O)ccc3nc2-1 + Cc1[nH]c2ccc(F)cc2c1-c1nc2c3cccnc3c3ncccc3c2[nH]1	three

Query compound follows.
Incoming: Lab note: which band did Nc1ccn(C2OC(CO)C(O)C2(F)F)c(=O)n1 (stereo not given) + Cc1cnc(CNC(=O)c2c(=O)c3ccc(N4CCCN(C)CC4)nc3n3c2sc2ccccc23)cn1 land in?
Outgoing: three

###

# viability, T/C per record follows
# Tested on: 276233-004-R-J1-PDC complex spheroid viability
# Procedure Summary: Anticancer human tumor 276233-004-R-J1-PDC cell line growth inhibition [GQUAD];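 also: spheroids exposed to drugs for seven days; 100% = DMSO vehicle control viability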
# Condition Details: second compound 0.316 µM; first compound 0.1 µM; hits give low values
Report as a plain number; the unit % is understood.

Please review the following examples before continuing.
Molecule	viability, T/C, %
COc1ncnc(C2CC2)c1-c1ncc2cnn(Cc3ccc(-c4nc(C(F)(F)F)cn4C(C)C)cc3)c2n1 + CN(C)c1ccc(Nc2c3ccc(NC(=O)CCN4CCCC4)cc3nc3cc(NC(=O)CCN4CCCC4)ccc23)cc1	72.7
C#Cc1c(F)ccc2cc(O)cc(-c3ncc4c(N5CC6CCC(C5)N6)nc(OCC56CCCN5CC(F)C6)nc4c3F)c12 (stereo not given) + CN(C)c1ccc(Nc2c3ccc(NC(=O)CCN4CCCC4)cc3nc3cc(NC(=O)CCN4CCCC4)ccc23)cc1	47.2
CC(C)n1c(=O)n(C)c2cnc3cc(F)c(-c4ccc(OCCCN5CCCCC5)nc4)cc3c21 + Cc1[nH]c2ccc(F)cc2c1-c1nc2c3cccnc3c3ncccc3c2[nH]1	94.3

The reported 276233-004-R-J1-PDC complex spheroid viability viability, T/C of CC1COCCN1c1cc(C2(S(C)(=N)=O)CC2)nc(-c2ccnc3[nH]ccc23)n1 (stereo not given) + Cc1cnc(CNC(=O)c2c(=O)c3ccc(N4CCCN(C)CC4)nc3n3c2sc2ccccc23)cn1 is 87.8

The reported 276233-004-R-J1-PDC complex spheroid viability viability, T/C of C=CCn1c(=O)c2cnc(Nc3ccc(N4CCN(C)CC4)cc3)nc2n1-c1cccc(C(C)(C)O)n1 + CN(C)c1ccc(Nc2c3ccc(NC(=O)CCN4CCCC4)cc3nc3cc(NC(=O)CCN4CCCC4)ccc23)cc1 is 67.3
